Molecular target: hNPFF1-R (Homo sapiens, UniProt Q9GZQ6)
Construct: expressed in transfected cells; host or cells: CHO cells
Sequence (Q9GZQ6 whole entry): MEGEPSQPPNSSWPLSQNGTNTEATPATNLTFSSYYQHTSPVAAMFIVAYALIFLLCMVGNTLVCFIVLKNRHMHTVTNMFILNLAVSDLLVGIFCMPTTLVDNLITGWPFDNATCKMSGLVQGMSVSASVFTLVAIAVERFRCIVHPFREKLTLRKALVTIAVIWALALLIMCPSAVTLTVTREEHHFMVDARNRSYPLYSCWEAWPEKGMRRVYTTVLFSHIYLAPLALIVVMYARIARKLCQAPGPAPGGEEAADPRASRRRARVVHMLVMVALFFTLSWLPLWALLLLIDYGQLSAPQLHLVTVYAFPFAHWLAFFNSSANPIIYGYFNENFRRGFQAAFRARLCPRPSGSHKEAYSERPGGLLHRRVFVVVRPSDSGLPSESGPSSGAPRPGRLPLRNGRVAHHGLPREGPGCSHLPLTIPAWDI
Assay: Radioligand competition binding at NPFF1-R
Settings: read-out: Receptor Binding, Ki ± SEM NPFF1-R
Catalogue of molecules with associated pKi
Entry type: numeric. Quantity: pKi, the -log10 of concentration in molar units.

| Molecule | pKi |
| --- | --- |
| N=C(N)Nc1ccc(C(=C2CCN(Cc3ccccc3)CC2)c2ccccc2)cc1 [Compound 22b] | 6.03 |
| N=C(N)Nc1cccc(C(=C2CCN(Cc3ccccc3)CC2)c2cccc(O)c2)c1 [Compound 13a] | 5.66 |
| N=C(N)Nc1ccc(C(=C2CCN(Cc3ccccc3)CC2)c2cccc(O)c2)cc1 [Compound 13b] | 6.22 |
| N=C(N)Nc1cccc(C(=C2CCN(Cc3ccccc3)CC2)c2ccccc2)c1 [Compound 22a] | 5.85 |

Please find the next molecule below.
Enquiry: Identify pKi associated with the molecule N=C(N)Nc1cccc(C(=C2CCN(Cc3ccccc3)CC2)c2ccc(O)cc2)c1 [Compound 14a]
Return: 5.76

====

Molecular target: KOR (Homo sapiens, UniProt P41145)
Sequence (P41145 whole entry): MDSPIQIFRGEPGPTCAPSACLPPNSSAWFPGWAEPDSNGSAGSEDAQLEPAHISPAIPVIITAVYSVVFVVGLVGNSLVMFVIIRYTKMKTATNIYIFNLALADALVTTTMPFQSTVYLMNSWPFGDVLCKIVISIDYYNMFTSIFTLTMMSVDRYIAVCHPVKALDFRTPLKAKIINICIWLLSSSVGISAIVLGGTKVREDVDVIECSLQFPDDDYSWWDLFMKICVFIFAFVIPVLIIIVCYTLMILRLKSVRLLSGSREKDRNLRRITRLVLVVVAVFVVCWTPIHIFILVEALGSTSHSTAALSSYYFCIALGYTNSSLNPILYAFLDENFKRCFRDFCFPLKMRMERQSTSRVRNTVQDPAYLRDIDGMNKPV
Test: [35S]GTPγS functional assay (agonist mode) at KOR
Assay type: biochemical
Details: [35S]GTPγS KOR EC50 ± SEM, agonist mode, standard U-69,593
Result Type: log10(EC50) (log10 of the value in nM)
Plainly stated, the numbers are log10 of EC50 given in nM.

| Molecule | Assayed Target | log10(EC50) |
| --- | --- | --- |
| N=C(N)Nc1cccc(C(=C2CCN(Cc3ccccc3)CC2)c2cccc(O)c2)c1 [Compound 13a] | KOR (Homo sapiens, UniProt P41145) | 1.62 |
| N=C(N)Nc1ccc(C(=C2CCN(Cc3ccccc3)CC2)c2ccccc2)cc1 [Compound 22b] | KOR (Homo sapiens, UniProt P41145) | 3.43 |
| N=C(N)Nc1ccc(C(=C2CCN(Cc3ccccc3)CC2)c2ccc(O)cc2)cc1 [Compound 14b] | KOR (Homo sapiens, UniProt P41145) | 2.13 |
| N=C(N)Nc1cccc(C(=C2CCN(Cc3ccccc3)CC2)c2ccccc2)c1 [Compound 22a] | KOR (Homo sapiens, UniProt P41145) | 2.41 |
| N=C(N)Nc1cccc(C(=C2CCN(Cc3ccccc3)CC2)c2ccc(O)cc2)c1 [Compound 14a] | KOR (Homo sapiens, UniProt P41145) | 2.68 |

Proceeding to the next molecule to report its log10(EC50).
Enquiry: Report log10(EC50) for N=C(N)Nc1ccc(C(=C2CCN(Cc3ccccc3)CC2)c2cccc(O)c2)cc1 [Compound 13b]
Return: 2.43

====

Experiment: Metabolic stability in rat liver microsomes
Type: in vitro ADME
Settings: Sprague Dawley, rat, liver microsomes, pH 7.4; 1 µM, RLM; read-out: in vitro half-life
Result Type: half-life at 1 µM (min)
Respond numerically; units are min and should not be typed.

Enquiry: Retrieve half-life at 1 µM measured for N=C(N)Nc1ccc(C(=C2CCN(Cc3ccccc3)CC2)c2ccccc2)cc1 [Compound 22b] and print it.
Return: 31

====

Assay: In vivo pharmacokinetic study, intravenous
Set-up: species or system Sprague Dawley rats
Settings: male, Sprague Dawley, plasma, iv; 5 mg/kg i.v., rat, mean (n = 6) ± SEM
Procedure: In vivo pharmacokinetic study. For the evaluation of the in vivo pharmacokinetic parameters of 22b, a pharmacokinetic study was performed in healthy male adult Sprague Dawley rats with in-dwelling jugular catheters weighing 225 ± 25 g. […] All samples were stored at −80 °C until they were further analyzed. Collected plasma samples were analyzed using a validated UPLC-MS/MS method, and non-compartmental analysis of the plasma concentration data was performed using Phoenix® 6.4. […]
Result Type: half-life
Number first, unit second.

Enquiry: Supply reported half-life belonging to this compound: N=C(N)Nc1ccc(C(=C2CCN(Cc3ccccc3)CC2)c2ccccc2)cc1 [Compound 22b]
Return: 4.1 h

====

Target: MOR (Homo sapiens, UniProt P35372)
Sequence (P35372 whole entry): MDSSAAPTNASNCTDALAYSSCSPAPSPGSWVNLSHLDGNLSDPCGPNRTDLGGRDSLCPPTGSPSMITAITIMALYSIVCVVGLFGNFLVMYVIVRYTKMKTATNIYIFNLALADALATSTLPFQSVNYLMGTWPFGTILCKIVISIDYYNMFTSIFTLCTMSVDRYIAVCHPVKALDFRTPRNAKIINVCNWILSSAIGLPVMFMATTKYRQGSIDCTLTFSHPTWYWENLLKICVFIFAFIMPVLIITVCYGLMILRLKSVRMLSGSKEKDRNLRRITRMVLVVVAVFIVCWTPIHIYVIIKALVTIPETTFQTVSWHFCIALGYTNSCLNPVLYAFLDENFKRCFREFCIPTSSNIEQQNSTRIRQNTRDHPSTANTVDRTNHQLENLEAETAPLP
Assay: Radioligand competition binding at MOR
Settings: read-out: Receptor Binding, Ki ± SEM MOR
Result Type: Ki (nM)
Write the value in nM as a bare number.

Enquiry: Give Ki for the following compound: N=C(N)Nc1ccc(C(=C2CCN(Cc3ccccc3)CC2)c2ccc(O)cc2)cc1 [Compound 14b]
Return: 313

====

Biological target: DOR (Homo sapiens, UniProt P41143)
Sequence (P41143 whole entry): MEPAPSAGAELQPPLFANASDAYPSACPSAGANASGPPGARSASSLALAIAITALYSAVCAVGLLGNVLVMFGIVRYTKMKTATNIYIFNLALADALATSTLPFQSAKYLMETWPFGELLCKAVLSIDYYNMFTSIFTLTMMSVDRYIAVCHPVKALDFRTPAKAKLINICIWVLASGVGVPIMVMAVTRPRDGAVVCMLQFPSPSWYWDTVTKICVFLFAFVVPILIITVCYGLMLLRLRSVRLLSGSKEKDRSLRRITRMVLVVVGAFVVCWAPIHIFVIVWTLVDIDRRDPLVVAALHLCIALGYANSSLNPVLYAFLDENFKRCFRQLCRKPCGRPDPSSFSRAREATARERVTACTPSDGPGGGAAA
Assay: [35S]GTPγS functional assay (agonist mode) at DOR
Assay type: biochemical
Details: Figure S2; axis Log(M); DPDPE run beside each compound; read-out: GTPγS Delta Agonist Functional Assay EC50 (Figure S2 curve fit)
Result Type: EC50
Kindly write the number and append the unit.

Enquiry: Complete the entry with EC50 for N=C(N)Nc1ccc(C(=C2CCN(Cc3ccccc3)CC2)c2ccc(O)cc2)cc1 [Compound 14b]
Return: 2.27e-07 M

====

Target: KOR (Homo sapiens, UniProt P41145)
Label rule met when Ki < 60 nM; otherwise rule not met.

# example entries with known answers
| Compound | Class Name |
| --- | --- |
| N=C(N)Nc1cccc(C(=C2CCN(Cc3ccccc3)CC2)c2ccccc2)c1 [Compound 22a] | rule not met |
| N=C(N)Nc1cccc(C(=C2CCN(Cc3ccccc3)CC2)c2ccc(O)cc2)c1 [Compound 14a] | rule met |
| N=C(N)Nc1ccc(C(=C2CCN(Cc3ccccc3)CC2)c2cccc(O)c2)cc1 [Compound 13b] | rule met |
| N=C(N)Nc1ccc(C(=C2CCN(Cc3ccccc3)CC2)c2ccc(O)cc2)cc1 [Compound 14b] | rule met |
| N=C(N)Nc1ccc(C(=C2CCN(Cc3ccccc3)CC2)c2ccccc2)cc1 [Compound 22b] | rule not met |

Enquiry: API: query returns whether the compound falls strictly under 60 nM in Ki. Query: N=C(N)Nc1cccc(C(=C2CCN(Cc3ccccc3)CC2)c2cccc(O)c2)c1 [Compound 13a]
Return: rule met

Enquiry: In plain terms, does CC(C)C[C@H](NC(=O)[C@@H](N)Cc1ccccc1)C(=O)N[C@@H](Cc1ccccc1)C(=O)N[C@@H](CCC(N)=O)C(=O)N1CCC[C@H]1C(=O)N[C@@H](CCC(N)=O)C(=O)N[C@@H](CCCN=C(N)N)C(=O)N[C@@H](Cc1ccccc1)C(N)=O [NPFF, neuropeptide FF, reference compound] come in under 60 nM for Ki?
Return: rule not met

====

Molecular target: DOR (Homo sapiens)
Experiment: [35S]GTPγS functional assay (agonist mode) at DOR
Assay type: biochemical
Conditions: [35S]GTPγS DOR EC50 ± SEM, agonist mode, standard DPDPE
Each entry below lists one item and its recorded EC50 value.
Write down the numeric answer in nM and omit the unit.

Enquiry: State its EC50 for this compound: N=C(N)Nc1cccc(C(=C2CCN(Cc3ccccc3)CC2)c2ccccc2)c1 [Compound 22a]
Return: 256

Enquiry: Return reported EC50. Input compound: N=C(N)Nc1ccc(C(=C2CCN(Cc3ccccc3)CC2)c2cccc(O)c2)cc1 [Compound 13b]
Return: 9.62

Enquiry: Identify EC50 associated with the compound N=C(N)Nc1cccc(C(=C2CCN(Cc3ccccc3)CC2)c2ccc(O)cc2)c1 [Compound 14a]
Return: 455

Enquiry: Indicate its recorded EC50; the compound in question is N=C(N)Nc1cccc(C(=C2CCN(Cc3ccccc3)CC2)c2cccc(O)c2)c1 [Compound 13a]
Return: 24.1

Enquiry: Input N=C(N)Nc1ccc(C(=C2CCN(Cc3ccccc3)CC2)c2ccccc2)cc1 [Compound 22b] , output reported EC50.
Return: 539

====

Listed next: entries and their corresponding Ki.
Biological target: MOR (Homo sapiens, UniProt P35372)
Assay: Radioligand competition binding at MOR
# output: bare number, implied unit nM

| Compound | Ki (nM) |
| --- | --- |
| N=C(N)Nc1cccc(C(=C2CCN(Cc3ccccc3)CC2)c2ccccc2)c1 [Compound 22a] | 6.45 |

Enquiry: Indicate its recorded Ki; the compound in question is N=C(N)Nc1ccc(C(=C2CCN(Cc3ccccc3)CC2)c2ccccc2)cc1 [Compound 22b]
Return: 428

Enquiry: Kindly indicate its recorded Ki. Item: N=C(N)Nc1cccc(C(=C2CCN(Cc3ccccc3)CC2)c2cccc(O)c2)c1 [Compound 13a]
Return: 5.06

Enquiry: Give me measured Ki, please, for this compound: N=C(N)Nc1cccc(C(=C2CCN(Cc3ccccc3)CC2)c2ccc(O)cc2)c1 [Compound 14a]
Return: 33.5

Enquiry: Entry N=C(N)Nc1ccc(C(=C2CCN(Cc3ccccc3)CC2)c2cccc(O)c2)cc1 [Compound 13b] needs its Ki filled in; supply it.
Return: 56.2

====

Recorded pEC50, one value per entry.
Target: MOR (Homo sapiens)
Assay: [35S]GTPγS functional assay (agonist mode) at MOR
Format: biochemical
Conditions: GTPγS Mu Agonist Functional Assay EC50 (Figure S2 curve fit)
As a rule, pEC50 stands for the negative log10 of the concentration, concentration in M.

| Compound | Assayed Target | pEC50 |
| --- | --- | --- |
| N=C(N)Nc1cccc(C(=C2CCN(Cc3ccccc3)CC2)c2cccc(O)c2)c1 [Compound 13a] | MOR (Homo sapiens) | 7.55 |

Now consider a different compound.
Enquiry: Give recorded pEC50. N=C(N)Nc1cccc(C(=C2CCN(Cc3ccccc3)CC2)c2ccc(O)cc2)c1 [Compound 14a]
Return: 6.38

The measurements presented in this section are drawn from paper PMC12251305.
